- assay.text: mPFC microdialysis of rapastinel
- Format: in vivo
- test.settings: rat, brain (mPFC) microdialysate, sc, 10 mg/kg
Peptide text beside a SMILES is read from it.
experimental.readout: level at time molar

Noted for C[C@@H](O)[C@H](N)C(=O)N1CCC[C@H]1C(=O)N1CCC[C@H]1C(=O)N[C@H](C(N)=O)[C@@H](C)O [Rapastinel] (H-TPPT-NH2) : its level at time molar reads ~30 nM

----------
- assay.text: mPFC microdialysis of rapastinel
- Format: in vivo
- test.settings: rat, in vivo, sc
Peptide text beside a SMILES is read from it.
experimental.readout: Tmax

Noted for C[C@@H](O)[C@H](N)C(=O)N1CCC[C@H]1C(=O)N1CCC[C@H]1C(=O)N[C@H](C(N)=O)[C@@H](C)O [Rapastinel] (H-TPPT-NH2) : its Tmax reads ~20 min

----------
- System: NMDAR in rat primary cortical neurons
- assay.text: Intracellular Ca2+ influx
- Assay type: cell-based
- test.settings: read-out: IC50, inhibition of NMDAR-mediated [Ca2+]i accumulation
pIC50: −log10 of the molar value.
experimental.readout: pIC50

Record CN[C@]1(c2ccccc2Cl)CCCCC1=O [S-ketamine] / NMDAR in rat primary cortical neurons, pIC50 recorded as ~6.00
